- Test system: Wnt5a (protein binding on small-molecule microarray)
- Protocol Text: Wnt5a binders on small-molecule microarray, primary screen, biophysical, 635/667 nm fluorescence (AID 1142);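 note: fluorescence read at 667 nm with signal to noise per printed feature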
- Measurement Setup: 635 nm fluorescence, higher = more signal
Measure: composite z-score
Reply with just the number.

Compound: [N-]=[N+]=Nc1ccccc1[C@@H]1OC(c2ccc(OCCCO)cc2)=N[C@]1(Cc1ccccc1)C(N)=O
Tested On: Wnt5a (protein binding on small-molecule microarray)
Measure: composite z-score
Result Number: -0.0757
//
Compound: COc1ccc(C#Cc2ccc3c(c2)[C@]2(C(=O)N3)[C@H](C(=O)Nc3nc4ccccc4s3)[C@H]3C(=O)O[C@H](c4ccccc4)[C@H](c4ccccc4)N3[C@@H]2c2ccc(OCCO)cc2)cc1
Tested On: Wnt5a (protein binding on small-molecule microarray)
Measure: composite z-score
Result Number: 0.505
//
Compound: CN1C=C(C(=O)OCCS(C)(=O)=O)C(C(=O)OCCS(C)(=O)=O)=CC(CCCO)=CC1c1ccc(CN2CCCC2)cc1 (centres undefined)
Tested On: Wnt5a (protein binding on small-molecule microarray)
Measure: composite z-score
Result Number: 0.531
//
Compound: CC(C)C(=C=CC[C@@H](O)c1ccccc1OCCO)C[C@@H](O)c1cc(Cl)cc(Cl)c1O
Tested On: Wnt5a (protein binding on small-molecule microarray)
Measure: composite z-score
Result Number: 0.532
//
Compound: CC1CC/C=C\[C@H]2OC34C=CCN(c5ccc(Cl)cc5)C(=O)[C@H]3N(CCCO)C(=O)[C@]4(C)C2C(=O)O1 (some centres undefined)
Tested On: Wnt5a (protein binding on small-molecule microarray)
Measure: composite z-score
Result Number: -0.785

composite z-score measured on C[C@@H](OCc1ccccc1)C1NC(=O)[C@@]23C(=O)N[C@@H](Cc4ccccc4)C2[C@H](C)[C@@]2(C)O[C@H]2C3/C=C/C/C=C\CNC(=O)[C@H](Cc2ccccc2)NC1=O (some centres undefined) = -0.0187

composite z-score measured on COCCOC(=O)N1C(=O)[C@@]2(c3cc(C#CC4=CCCCC4)ccc31)[C@H](C(=O)N1CCN(c3ncccn3)CC1)[C@H]1C(=O)O[C@H](c3ccccc3)[C@H](c3ccccc3)N1[C@@H]2c1ccccc1OCCO = 0.337

composite z-score measured on C=CCNC(=O)[C@H]1[C@@H]2C(=O)O[C@@H](c3ccccc3)[C@@H](c3ccccc3)N2[C@@H](c2ccccc2OCCO)[C@]12C(=O)N(C(=O)OCCOC)c1ccccc12 = 0.307

composite z-score measured on C=C(COC)/C(=C/C[C@H](OC(=O)c1ccncc1)c1cccc(OCCO)c1)c1cnc2ccccc2c1 = 0.154
